Experimental Target: D(1A) dopamine receptor (Homo sapiens)
Method: Antagonist of Human D 1 Dopamine Receptor: qHTS; note: % is set by controls: 0 for no effect and ±100 for the full control effect
Run Parameters: HEK293 TREx D1 cells, calcium flux, dopamine EC80; at 10 µM; stronger effect = lower value
In all, about 360,000 compounds went through this assay and about 11,000 (3.1%) were called active. The sample as a whole holds a higher share of actives than the screen did.
Test Readout: activity change, negative = inhibition (%)
Please reply with the bare figure in % and do not write the unit itself.

[Q] Please give the measured activity change, negative = inhibition for this compound: Cc1ccc(C)n1-c1nnc(N2CCC(C(=O)NCc3ccccc3Cl)CC2)s1
[A] -0.53

[Q] Please give the measured activity change, negative = inhibition for this compound: Cc1ccc(NC(=O)C(Cc2ccccc2)NS(=O)(=O)c2ccc3c(c2)oc(=O)n3C)cc1C (stereo not drawn)
[A] -42.8

[Q] Please give the measured activity change, negative = inhibition for this compound: Cc1noc(C)c1-c1ccc2ncnc(NCc3ccc(F)c(F)c3)c2c1
[A] -25.4

[Q] Please give the measured activity change, negative = inhibition for this compound: COc1ccccc1CNC(=O)C(Cc1ccccc1)NS(=O)(=O)c1ccc2c(c1)oc(=O)n2C (stereo not drawn)
[A] 3.15

[Q] Please give the measured activity change, negative = inhibition for this compound: COc1ccc(-c2cccc(NS(=O)(=O)c3cc(C)c(OC)c(C)c3C)c2)nn1
[A] -20.7

[Q] Please give the measured activity change, negative = inhibition for this compound: Cn1c(=O)c2c(-c3ccccc3Br)n(Cc3ccccc3)cc2n(C)c1=O
[A] -11.3

[Q] Please give the measured activity change, negative = inhibition for this compound: C1=C(CCNc2ncnc3c2cnn3-c2ccccc2)CCCC1
[A] -10.6

[Q] Please give the measured activity change, negative = inhibition for this compound: CSc1nc(=O)c2c(n1C)NC(=O)CC2c1ccccc1OC(C)C (stereo not drawn)
[A] 2.77

[Q] Please give the measured activity change, negative = inhibition for this compound: CCOC(=O)c1ccc(NC(=O)C2CC(=O)Nc3nc4ccccc4n32)cc1 (stereo not drawn)
[A] 2.09

[Q] Please give the measured activity change, negative = inhibition for this compound: CC(=O)c1ccc(NC(=O)C2CC(=O)Nc3nc4ccccc4n32)cc1 (stereo not drawn)
[A] -16

[Q] Please give the measured activity change, negative = inhibition for this compound: CCc1ccc(CN(Cc2ccco2)C(=O)c2ccccc2Cl)cc1
[A] -13.4

[Q] Please give the measured activity change, negative = inhibition for this compound: COc1ccccc1Nc1nc(N)nc(N)c1S(=O)(=O)c1ccccc1
[A] 3.62

[Q] Please give the measured activity change, negative = inhibition for this compound: COc1ccc(-c2cn3c(n2)sc2cc(C(=O)Nc4ccccc4F)ccc23)cc1
[A] -2.21
